# Target: T1, hK1 (human tissue kallikrein 1), recombinant (human, UniProt P06870 25-262)
# T1 construct: Expressed in P. pastoris from KLK1 cDNA and purified; enzymatically active; also called KLK1; Recombinant (Pichia) Kallikrein
# Protocol: SPR
Measure Name: koff (s⁻¹)
Your answer should be a plain number; it is taken to be in s⁻¹.

Binder	koff / s⁻¹
M0126-H09 (Fab, V domains shown) VH: EVQLLESGGGLVQPGGSLRLSCAASGFTFSNYTMMWVRQAPGKGLEWVSGIYPSGGQTAYADSVKGRFTISRDNSKNTLYLQMNSLRAEDTAVYYCARGGSWYAFDIWGQGTMVTVSS VL: AQSVLTQDPAVSVALGQTVRFTCQGDSLRNYHPSWYQQKPRQAPVLVMFGRNNRPSGIPDRFSGSTSGGTASLTITATQADDEADYFCSSRDGSGNFLFGGGTKLTVLG	0.415

Shifting focus to the binder that follows.
Name the recorded koff for M0099-E11 (Fab, V domains shown) VH: EVQLLESGGGLVQPGGSLRLSCAASGFTFSHYTMVWVRQAPGKGLEWVSSIYSSGGRTNYADSVKGRFTISRDNSKNTLYLQMNSLRAEDTAVYYCARIVVVPSAQFYFYYGMDVWGQGTTVTVSS VL: DIQMTQSPSTLSASVGDRVTITCRASQSISNWLAWYQQKPGRAPKLLIYKASTLESGVPSRFSGSGSGTEFTLTISSLQPDDFATYYCQHYNSYSLFGQGTKLEIKR .
0.00796
